# Measured target: adenosine receptors (rat striatal membranes, [3H]-CGS21680) (Rattus norvegicus, UniProt P30543)
# Sequence (P30543 whole entry): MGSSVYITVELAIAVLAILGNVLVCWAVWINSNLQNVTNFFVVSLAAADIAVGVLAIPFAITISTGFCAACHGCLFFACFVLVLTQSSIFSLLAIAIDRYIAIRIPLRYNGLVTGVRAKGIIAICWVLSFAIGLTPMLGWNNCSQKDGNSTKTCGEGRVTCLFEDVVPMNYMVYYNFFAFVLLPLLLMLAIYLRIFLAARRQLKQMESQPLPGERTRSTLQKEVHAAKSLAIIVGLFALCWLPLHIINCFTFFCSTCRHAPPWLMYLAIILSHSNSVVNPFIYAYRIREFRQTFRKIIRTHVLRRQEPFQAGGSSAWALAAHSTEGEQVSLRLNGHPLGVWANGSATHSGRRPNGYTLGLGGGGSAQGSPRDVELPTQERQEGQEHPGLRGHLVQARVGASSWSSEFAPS
# Run description: Ki from displacement of [3H]-CGS21680 in rat striatal membranes at pH 5.5 and pH 7.4
# Assay type: binding
# Set-up: from tissue; host or cells: rat striatum (membranes)
# Condition context: pH 7.4; 2 nM [3H]-CGS21680, 90 minutes at 22° C.; read-out: (Ki) nM (pH 7.4)
Observation type: Ki
The number alone won't do; follow it with the unit.

CN(Cc1cccc(C(F)(F)F)c1)c1ncnc2c1ncn2[C@@H]1O[C@H](CO)[C@@H](O)[C@H]1O ... 20000 nM
CC[C@@H](C)Nc1nc(N)c2ncn(C3OC(CO)C(O)C3O)c2n1 (stereo partly shown) ... 510 nM
Nc1nc(Oc2ccc(F)c(F)c2)nc2c1ncn2[C@@H]1O[C@H](CO)[C@@H](O)[C@H]1O ... 3300 nM

Next compound, Ki to be filled in.
Query :: Give its Ki value. Item: `CCNC(=O)NC[C@H]1O[C@@H](n2cnc3c(N)ncnc32)[C@H](O)[C@@H]1O`
Result :: 6570 nM

---

# Measured target: adenosine receptors (rat striatal membranes, [3H]-CGS21680) (Rattus norvegicus, UniProt P30543)
# Run description: Ki from displacement of [3H]-CGS21680 in rat striatal membranes at pH 5.5 and pH 7.4
# Assay type: binding
# Parameters: from tissue; host or cells: rat striatum (membranes)
# Condition context: pH 5.5; 2 nM [3H]-CGS21680, 90 minutes at 22° C.; read-out: (Ki) nM (pH 5.5)
Observation type: Ki (nM)
One number for each entry, in nM.

# annotated cases, reported Ki shown
CC(C)CCNc1ncnc2c1ncn2[C@@H]1O[C@H](C(=O)NC(C)C)[C@@H](O)[C@H]1O [Compound 52] ... 39
NC(=O)c1nc(N)c2ncn([C@@H]3O[C@H](CO)[C@@H](O)[C@H]3O)c2n1 [Compound 39] ... 23
Nc1nc(OCC2CC2)nc2c1ncn2[C@@H]1O[C@H](CO)[C@@H](O)[C@H]1O [Compound 3] ... 39

Kindly give each listed record's Ki.
1. Nc1nc(NC2CC3CCC2C3)nc2c1ncn2[C@@H]1O[C@H](CO)[C@@H](O)[C@H]1O (some centres unmarked) [Compound 25]
2. Nc1nc(Oc2cc(F)cc(F)c2F)nc2c1ncn2[C@@H]1O[C@H](CO)[C@@H](O)[C@H]1O [Compound 12]
3. Nc1nc(Oc2cccc(Br)c2)nc2c1ncn2[C@@H]1O[C@H](CO)[C@@H](O)[C@H]1O [Compound 15]
4. OC[C@H]1O[C@@H](n2cnc3c(OCC4CCCC4)ncnc32)[C@H](O)[C@@H]1O [Compound 48]
5. CCCCCCNc1nc(N)c2ncn([C@@H]3O[C@H](C(=O)NCCCC)[C@@H](O)[C@H]3O)c2n1 [Compound 54]

Result ::
1. 5.5
2. 46
3. 35
4. 140
5. 0.3

---

# Measured target: adenosine receptors (rat striatal membranes, [3H]-CGS21680) (Rattus norvegicus)
# Run description: Ki from displacement of [3H]-CGS21680 in rat striatal membranes at pH 5.5 and pH 7.4
# Type: binding
# Set-up: from tissue; host or cells: rat striatum (membranes)
# Condition context: pH 5.5; 2 nM [3H]-CGS21680, 90 minutes at 22° C.; read-out: (Ki) nM (pH 5.5)
Observation type: log10 Ki (log10 of the value in nM)
Kindly note that the scale is log10 and the underlying Ki is in nM.

# annotated cases, reported log10 Ki shown
CCCCCCOc1nc(N)c2ncn([C@@H]3O[C@H](CO)[C@@H](O)[C@H]3O)c2n1 ... 0.48
CN(Cc1cccc(C(F)(F)F)c1)c1ncnc2c1ncn2[C@@H]1O[C@H](CO)[C@@H](O)[C@H]1O ... 0.58
CC(C)NC(=O)[C@H]1O[C@@H](n2cnc3c(N)ncnc32)[C@H](O)[C@@H]1O ... 0.70

Kindly give each listed record's log10 Ki.
1. CCS(=O)(=O)c1nc(N)c2ncn([C@@H]3O[C@H](CO)[C@@H](O)[C@H]3O)c2n1
2. CCCCCCNc1nc(N)c2ncn([C@@H]3O[C@H](CO)[C@@H](O)[C@H]3O)c2n1
3. CN(C)c1nc(NC2CCCCC2)nc2c1ncn2[C@@H]1O[C@H](CO)[C@@H](O)[C@H]1O
4. Nc1nc(NC2CCCCC2)nc2c1ncn2[C@@H]1O[C@H](CO)[C@@H](O)[C@H]1O

Result ::
1: 2.00; 2: -0.15; 3: 0.41; 4: -0.40
